Cited source for all entries: patent US8163793B2

- system under test: Cat L (UniProt P07711)
- protocol text: Cathepsin enzyme inhibition assay (fluorogenic peptide substrate Z-Val-Val-Arg-AMC), Cathepsin L
- Type: biochemical, human and mouse
- particulars: enzyme 1 nM, substrate 20 μM, pH 6.5; read-out: CatL IC50
pIC50: −log10 of the molar value. Where a name gives a salt, the structure may show the parent alone.
Decision: pIC50 >= 6 yields yes, all other cases yield no.

Worked examples follow.
compound	category
N#CC1(NC(=O)[C@H]2C[C@@H](S(=O)(=O)c3ccc(-n4cccn4)cc3Cl)CN2C(=O)C2(C(F)(F)F)CC2)CC1 [Example 165]	no
N#CC1(NC(=O)[C@@H]2C[C@@H](S(=O)(=O)c3ccccc3Cl)CN2C(=O)Oc2ccc(F)cc2)CC1 [Example 99]	no
N#CC1(NC(=O)[C@@H]2C[C@@H](S(=O)(=O)c3ccc(-n4ccnc4)cc3C(F)(F)F)CN2)CC1 [Example 20, hydrochloride]	no
N#CC1(NC(=O)[C@@H]2C[C@@H](S(=O)(=O)c3ccccc3Cl)CN2C(=O)C2(c3ccc(F)cc3)CC2)CC1 [Example 425]	yes
N#CC1(NC(=O)[C@@H]2C[C@@H](S(=O)(=O)c3ccc(OCC(F)(F)F)cc3Cl)CN2C(=O)C2(c3ccc(C(N)=O)cc3)CC2)CC1 [Example 277]	yes
N#CC1(NC(=O)[C@@H]2C[C@@H](S(=O)(=O)c3ccc(-n4ccnc4-c4ccccc4)cc3C(F)(F)F)CN2)CC1 [Example 25, hydrochloride]	no
N#CC1(NC(=O)[C@@H]2C[C@@H](S(=O)(=O)c3ccccc3Cl)CN2C(=O)C2(Oc3ccc(Cl)cc3)CC2)CC1 [Example 473]	no
Cc1cc(N2C[C@H](S(=O)(=O)CC3CC3)C[C@H]2C(=O)NC2(C#N)CC2)n(Cc2ccccc2)n1 [Example 445]	no

Decide: is the reported value of pIC50 for COCCOc1ccc(S(=O)(=O)[C@@H]2C[C@@H](C(=O)NC3(C#N)CC3)N(c3cc(C)nn3C3CCOCC3)C2)c(Cl)c1 [Example 488] equal to or greater than 6? no

Does the compound N#CC1(NC(=O)[C@H]2CC(S(=O)(=O)c3ccccc3Cl)CN2C(=O)C(NCC(F)(F)F)c2ccc(Cl)cc2)CC1 (stereo partly shown) [Example 421] have recorded pIC50 that is 6 or more? no

hey, is pIC50 for this one >= 6? N#CC1(NC(=O)[C@@H]2C[C@@H](S(=O)(=O)c3ccc(OCC(F)(F)F)cc3Cl)CN2C(=O)C2(c3ccc(Cl)cc3)CCC2)CC1 [Example 278] no

Is pIC50 for N#CC1(NC(=O)[C@H]2C[C@@H](S(=O)(=O)c3ccc(N4CCOCC4)cc3Cl)CN2C(=O)C2(C(F)(F)F)CC2)CC1 [Example 162] at or above 6? no
